Values were extracted from paper doi:10.64898/2025.12.19.695307.

# system: SARS-CoV-2 Omicron BQ.1.1 RBD (SARS-CoV-2 Omicron BQ.1.1, R346T | L452R)
# measurementProtocol: BLI
pKd: −log10 of the molar value.
readoutName: pKd

Some binders with known pKd results, for comparison:
{"columns": ["binder", "experimentalResult"],
 "data": [
  ["C092 (antibody, V domains shown) VH: QVQLVQSGAEVKKPGSSVKVSCKASGGSFTNHFISWVRQAPGQGLEWMGRIIPILGTANYAQNFQGRVMMTADKSTSTAYMELSSLRSEDTAVYYCARDSGYSGYGSTYYMDVWGKGTTVTVSS VL: QSVLTQPPSVSGAPGQRVTISCTGSNSNIGAGYDVHWYQQLPGAAPKLLIYGNNNRPSGVPDRFSGSKSDTSASLAITGLQVEDEADYYCQSYDSSLSDSVFGSGTKVTVL", "> 8.68"],
  ["R1-32 (antibody, V domains shown) VH: EVQLVESGAEVKKPGSSVKVSCKASGGTFSSYAISWVRQAPGQGLEWMGGIIPILGIANYAQKFQGRVTITADKSTSTAYMELSSLRSEDTAVYYCARENGYSGYGAAANFDLWGRGTLVTVSS VL: QSVLTQPPSVSGAPGQRVTISCTGSSSNIGAGYDVHWYQQLPGTAPKLLIYGNSNRPSGVPDRFSGSKSGTSASLAITGLQAEDEADYYCQSYDSSLSGSVFGGGTKLTVL", "< 7.26"]
]}

Reported pKd for ZL525 (antibody, V domains shown) V domain 1: QVQLVQSGAEVKKPGSSMKVSCQASGGTFSSHPISWIRQAPGQGLEWMGRIIPIAGMTDYGQKFQGRITITADTSTSTSYVELRGLRSQDTAFYYCAKDVGYSDYGSAYYFHTWGQGTLITVSS V domain 2: QSVLTQPPSVSGAPGQRVTISCTGSNSNIGAGYDVHWYQQLPGTAPKLLIYRNNKRPSGVPDRFSGSKSDTSASLAITGLQAEDEAHYYCQSFDSSLGGSLFGGGTKLAVL : what is it?
> 9.15
